tested on: [^3H]dUMP-labelled DNA; experiment: Kinetic parameters on uracil substrate; format: biochemical; conditions: U-ds substrate; calculated from Vmax assuming Mr=25000
measured_metric: Kcat (s⁻¹)
Please state the figure in s⁻¹; there is no need to write the unit.

// Kcat lookup, key: Asn204Asp: human UDG mutant, codon 204 Asn changed to Asp; cytosine-DNA glycosylase (CDG) (protein) MGVFCLGPWGLGRKLRTPGKGPLQLLSRLCGDHLQAIPAKKAPAGQEEPGTPPSSPLSAEQLDRIQRNKAAALLRLAARNVPVGFGESWKKHLSGEFGKPYFIKLMGFVAEERKHYTVYPPPHQVFTWTQMCDIKDVKVVILGQDPYHGPNQAHGLCFSVQRPVPPPPSLENIYKELSTDIEDFVHPGHGDLSGWAKQGVLLLDAVLTVRAHQANSHKERGWEQFTDAVVSWLNQNSNGLVFLLWGSYAQKKGSAIDRKRHHVLQTAHPSPLSVYRGFFGCRHFSKTNELLQKSGKKPIDWKEL
0.02
